Assay: chemical genetic growth profiling, strain panel (AID 1159580);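 further: tested at 20 µM; growth read once vehicle control cultures reached saturation at 30 °C; 1 = growth at the plate median or of vehicle wells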
Settings: S. cerevisiae deletion strains, growth OD, locus YDL192W, strain arf1, stronger effect = lower value
Out of some 5,500 compounds screened, about 2,000 (36%) were called active. About 18% were inconclusive and are not listed. The list shows a part of the results.
quantity: normalized growth

INSERT INTO results (chemicalsmiles, quantity, quantitativeresult) VALUES
  ('C[C@H]1c2cccc(O)c2C(O)=C2C(=O)[C@]3(O)C(O)=C(C(N)=O)C(=O)[C@@H](N(C)C)[C@@H]3[C@@H](O)[C@@H]21', 'normalized growth', 0.966),
  ('CN(C)c1ccc(O)c2c1C[C@H]1C[C@H]3[C@H](N(C)C)C(=O)C(C(N)=O)=C(O)[C@@]3(O)C(=O)C1=C2O', 'normalized growth', 0.962),
  ('C=C1c2c(Cl)ccc(O)c2C(O)=C2C(=O)[C@]3(O)C(O)=C(C(N)=O)C(=O)[C@@H](N(C)C)[C@@H]3[C@@H](O)[C@H]12', 'normalized growth', 0.95);

###

Test: chemical genetic growth profiling, strain panel (AID 1159580)
Conditions: S. cerevisiae deletion strains, growth OD, locus YER155C, strain BEM2, stronger effect = lower value
Screen size: about 5,500 compounds; about 2,000 (36%) were called active. Not shown: some 18% with an inconclusive outcome. The list shows a part of the results.
Listing of recorded normalized growth by entry.
quantity: normalized growth

INSERT INTO results (compound, quantity, result) VALUES
  ('NCCCCCCNS(=O)(=O)c1cccc2c(Cl)cccc12', 'normalized growth', '1.01 (inactive)'),
  ('CC(=O)O[C@H]1CC[C@@]2(C)C(=CC(=O)C3C4CCC(C(C)CCCC(C)C)[C@@]4(C)CCC32)C1 (stereo not given in full)', 'normalized growth', '1.01 (inactive)'),
  ('CC(Cc1cccc(C(F)(F)F)c1)NCCOC(=O)c1ccccc1 (stereo not given)', 'normalized growth', '1.02 (inactive)'),
  ('COC(=O)/C(=C1\OC(=O)C(c2ccccc2)=C1O)c1ccccc1', 'normalized growth', '0.994 (inactive)'),
  ('CN(C)[C@@H]1C(=O)C(C(N)=O)=C(O)[C@@]2(O)C(=O)C3=C(O)c4c(O)ccc(Cl)c4[C@@](C)(O)[C@H]3C[C@@H]12', 'normalized growth', '1.02 (inactive)'),
  ('CC(C)CCCC(C)[C@H]1CCC2C3CC=C4C[C@@H](O)CC[C@]4(C)C3CC[C@@]21C (stereo not given in full)', 'normalized growth', '1.01 (inactive)'),
  ('COc1ccccc1OCC(O)CO (stereo not given)', 'normalized growth', '1.01 (inactive)'),
  ('Cc1cc(=O)[nH]c(=S)[nH]1', 'normalized growth', '1.01 (inactive)'),
  ('CC12CCC(O)CC1CCC1C2[C@H](O)CC2(C)C(C3=CC(=O)OC3)CCC12O (stereo not given in full)', 'normalized growth', '1.01 (inactive)'),
  ('CC(C)CCCC(C)C1CCC2C3CC[C@H]4C[C@@H](O)CC[C@]4(C)C3CC[C@]12C (stereo not given in full)', 'normalized growth', '0.997 (inactive)');

###

Assay: chemical genetic growth profiling, strain panel (AID 1159580);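 further: tested at 20 µM; growth read once vehicle control cultures reached saturation at 30 °C; 1 = growth at the plate median or of vehicle wells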
Details: S. cerevisiae deletion strains, growth OD, locus YLR371W, strain rom2, stronger effect = lower value
The whole screen tested about 5,500 compounds, of which about 2,000 (36%) were called active. About 18% were inconclusive and are not listed. The list shows a part of the results.
Lab note: cut-off is 1. Strictly less in normalized growth is MET. Exactly 1 or more is NOT MET.

INSERT INTO measurements (molecule, discretelabel) VALUES
  ('C[C@H]1c2cccc(O)c2C(O)=C2C(=O)[C@]3(O)C(O)=C(C(N)=O)C(=O)[C@@H](N(C)C)[C@@H]3[C@@H](O)[C@@H]21', 'MET'),
  ('O=C(OCc1ccccc1)c1ccccc1', 'MET'),
  ('CC(C)CCCC(C)[C@H]1CCC2C3C(=O)C=C4C[C@@H](O)CC[C@]4(C)C3CC[C@@]21C (stereo partly specified)', 'NOT MET');

###

Assay: chemical genetic growth profiling, strain panel (AID 1159580);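 further: tested at 20 µM; growth read once vehicle control cultures reached saturation at 30 °C; 1 = growth at the plate median or of vehicle wells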
Settings: S. cerevisiae deletion strains, growth OD, locus YNL222W, strain SSU72, stronger effect = lower value
The campaign covered roughly 5,500 compounds. About 2,000 (36%) were called active. Roughly 18% stayed inconclusive and do not appear here. The list shows a part of the results.
quantity: normalized growth

INSERT INTO measurements (chemicalsmiles, quantitativeresult) VALUES
  ('N/C(Cc1cccc2ccccc12)=N/OC(=O)c1ccc(Cl)cc1', 0.95),
  ('CC(C)(C)c1cc(C(=O)Nc2ccc3c(c2)OCO3)n(Cc2ccc(F)cc2)n1', 0.983),
  ('Cc1nn(-c2cccc(Cl)c2)c2oc(=O)cc(C(F)(F)F)c12', 0.975),
  ('Cc1onc(-c2c(Cl)cccc2Cl)c1C(=O)O/N=C(/N)Cc1ccc(C(C)(C)C)cc1', 0.987),
  ('O=C1c2cccc3c(Sc4ccccc4)ccc(c23)C(=O)N1NCCO', 0.921),
  ('COC(=O)c1sccc1NS(=O)(=O)c1cc(Cl)cc(Cl)c1', 0.953);

###

Assay: chemical genetic growth profiling, strain panel (AID 1159580);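 further: tested at 20 µM; growth read once vehicle control cultures reached saturation at 30 °C; 1 = growth at the plate median or of vehicle wells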
Details: S. cerevisiae deletion strains, growth OD, locus YCL069W, strain vba3
In all, about 5,500 compounds went through this assay and about 2,000 (36%) were called active. Inconclusive results (about 18%) are left out. Rule as the data show it: active = normalized growth mostly below about 0.91 (no sharp cut-off); inconclusive = no clear call, values can overlap the other calls; inactive = mostly above about 0.92. Some of the results follow.
Possible outcomes: 1.0 (active), 0.0 (inactive)

INSERT INTO results (compound, discretelabel) VALUES
  ('CC(C)(C)NCC(O)c1ccc(O)c(CO)c1 (stereo not given)', 0.0),
  ('N=C(N)N', 0.0),
  ('CN(C)CCCN1c2ccccc2CCc2ccccc21', 0.0),
  ('CS(=O)(=O)Nc1ccc([N+](=O)[O-])cc1Oc1ccccc1', 0.0),
  ('O=C(NCO)c1cccnc1', 0.0),
  ('CCC(C)C(=O)OC1[C@@H]2CC3=C4CC(=O)O[C@@H](c5ccoc5)[C@]4(C)CCC3[C@@](C)(C2=O)[C@@H](CC(=O)OC)C1(C)C (stereo not given in full)', 0.0),
  ('CC(C)CCCC(C)[C@H]1CCC2C3C(=O)C=C4C[C@@H](O)CC[C@]4(C)C3CC[C@@]21C (stereo not given in full)', 0.0),
  ('CC(=O)O[C@H]1CCC2(C)C3=C(CCC2C1(C)C)[C@@]1(C)CC[C@@H](C(C)CCC=C(C)C)[C@]1(C)CC3 (stereo not given in full)', 0.0),
  ('CC(C)CCCC(C)[C@H]1CCC2C3CC=C4CC(=O)CC[C@]4(C)C3CC[C@@]21C (stereo not given in full)', 0.0),
  ('CC(=O)O[C@@H]1CC2C(C)(C)[C@H](O)C=C[C@]2(C)C2CC[C@]3(C)C(=CC(=O)O[C@H]3c3ccoc3)[C@@]21C (stereo not given in full)', 0.0),
  ('CC(C)=CC1C(C(=O)O)C1(C)C (stereo not given)', 0.0),
  ('CN(C)CCCN1c2ccccc2Sc2ccc(Cl)cc21', 1.0),
  ('COC(=O)c1c(OC)cc2c(c1C)Oc1c(Cl)c(OC(C)=O)c(Cl)c(C)c1C(=O)O2', 0.0),
  ('CC(=O)O[C@@H]1CC2C(C)(C)C(=O)C=C[C@]2(C)C2CC[C@]3(C)C(=CC(=O)O[C@H]3c3ccoc3)[C@@]21C (stereo not given in full)', 0.0),
  ('CC(=O)Nc1ccc(S(=O)(=O)Nc2onc(C)c2C)cc1', 0.0),
  ('CN(C)C(=O)Oc1cccc([N+](C)(C)C)c1', 0.0),
  ('O=C(O)c1ccc(S(=O)(=O)N(Cl)Cl)cc1', 0.0),
  ('CC(C)CCCC(C)C1CCC2C3CC(=O)[C@H]4C[C@@H](O)CC[C@]4(C)C3CC[C@]12C (stereo not given in full)', 0.0),
  ('COC(=O)c1c(C)c2c(c(C)c1O)OC(=O)c1c(C)c(Cl)c(O)c(Cl)c1O2', 0.0),
  ('CNNC', 0.0),
  ('CC(C)CCCC(C)[C@H]1CCC2C3CC=C4C[C@@H](O)CC[C@]4(C)C3CC[C@@]21C (stereo not given in full)', 0.0),
  ('CCOC(=O)NNc1nncc2ccccc12', 0.0),
  ('COC(=O)/C(=C1\OC(=O)C(c2ccccc2)=C1O)c1ccccc1', 0.0),
  ('CC(C)c1ccc2c(c1)CCC1C(C)(C(N)=O)CCCC21C (stereo not given)', 0.0),
  ('COc1ccc(C2Sc3ccccc3N(CCN(C)C)C(=O)C2OC(C)=O)cc1 (stereo not given)', 0.0),
  ('CC(=O)O[C@H]1CC[C@@]2(C)C(=CC(=O)C3C4CCC(C(C)CCCC(C)C)[C@@]4(C)CCC32)C1 (stereo not given in full)', 0.0),
  ('CCCN(CCC)S(=O)(=O)c1ccc(C(=O)O)cc1', 0.0),
  ('CC(C)c1ccc2c(c1)CCC1[C@](C)(CN)CCC[C@]21C (stereo not given in full)', 0.0),
  ('O=C(O)c1cc(O)c2c(c1)[C@@H]([C@H]1c3cc(C(=O)O)cc(O)c3C(=O)c3c(O[C@H]4O[C@H](CO)[C@@H](O)[C@H](O)[C@H]4O)cccc31)c1cccc(O[C@H]3O[C@H](CO)[C@@H](O)[C@H](O)[C@H]3O)c1C2=O', 0.0),
  ('Nc1ccc(S(=O)(=O)NC(=O)c2ccccc2)cc1', 0.0),
  ('CC12CCC(=O)C=C1CCC1C2[C@@H](O)CC2(C)C1CC[C@]2(O)C(=O)COP(=O)(O)O (stereo not given in full)', 0.0),
  ('CC(=O)O[C@@H]1C=C[C@@]2(C)C(C[C@@H](OC(C)=O)[C@@]3(C)C4=CC(=O)O[C@@H](c5ccoc5)[C@]4(C)CCC23)C1(C)C (stereo not given in full)', 0.0),
  ('O=C(O)c1ccccc1', 0.0),
  ('CC1=CCCC2C1(C)CCC(C)C2(C)CC/C(C)=C/C[n+]1cn(C)c2c(N)ncnc21 (stereo not given)', 0.0),
  ('CC(C)=CCCC(C)[C@@H]1CC[C@]2(C)C3=C(CC[C@@]12C)C1(C)CC[C@H](O)C(C)(C)C1CC3 (stereo not given in full)', 0.0),
  ('CC(CCC(=O)O)[C@H]1CCC2C3C(=O)C[C@@H]4CC(=O)CC[C@]4(C)C3CC(=O)[C@@]21C (stereo not given in full)', 0.0),
  ('CC(N=C(NC#N)Nc1ccncc1)C(C)(C)C (stereo not given)', 0.0),
  ('O=P1(N(CCCl)CCCl)NCCCO1 (stereo not given)', 0.0),
  ('CN[C@@H]1[C@H](O)[C@H](NC)[C@H]2O[C@@]3(O)C(=O)C[C@@H](C)O[C@H]3O[C@@H]2[C@H]1O', 0.0),
  ('CCOC(=O)[C@H](CCc1ccccc1)N[C@@H](C)C(=O)N1CCC[C@H]1C(=O)O', 0.0);
